Measured values drawn from patent US10266497B2 for this set.

Target: MAGL (Homo sapiens)
Sequence (Q99685 1-303): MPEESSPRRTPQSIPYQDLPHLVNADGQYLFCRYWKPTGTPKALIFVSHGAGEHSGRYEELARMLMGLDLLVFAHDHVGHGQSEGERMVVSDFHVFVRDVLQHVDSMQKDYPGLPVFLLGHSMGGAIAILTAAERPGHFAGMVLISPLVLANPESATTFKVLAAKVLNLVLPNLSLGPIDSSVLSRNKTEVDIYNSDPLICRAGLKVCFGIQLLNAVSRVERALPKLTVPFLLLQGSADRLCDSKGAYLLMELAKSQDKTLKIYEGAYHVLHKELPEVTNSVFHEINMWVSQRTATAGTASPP
Assay: In vitro competitive activity-based protein profiling, MAGL, human
Conditions: read-out: MAGL % inh. 1 μM (human)
ENDPOINT: inhibition at 1 µM

Consider the reported inhibition at 1 µM for these compounds:
O=C(O)c1ccn(C(=O)N2C[C@H]3C[C@H](Oc4ccc(-c5ccccc5)cc4)C[C@H]3C2)n1 ... > 75%
Cc1cc(-c2ccccc2)ccc1CN1CCN(C(=O)n2ccc(C(=O)O)n2)CC1 ... > 75%
C[C@H]1CN(Cc2cccc(OCC(C)(C)O)c2Cl)CCN1C(=O)n1ccc(C(N)=O)n1 ... > 75%

For every listed record, write down its inhibition at 1 µM.
1. O=C(O)c1ccn(C(=O)N2CCN(Cc3cccc(Cl)c3N3C4CCC3COC4)CC2)n1
2. Cc1c(CO[C@H]2C[C@@H]3CN(C(=O)n4cc(Cl)c(C(=O)O)n4)C[C@@H]3C2)cccc1C(F)(F)F
3. O=C(O)c1ccn(C(=O)N2CCN(Cc3ccc(Cl)c(-c4nccs4)c3)CC2)n1
4. O=C(O)c1ccn(C(=O)N2CCC3(CCN(Cc4cc(F)cc(C(F)(F)F)c4)C3)CC2)n1

[A]
1. > 75%
2. > 75%
3. > 75%
4. > 75%

###

biological target: FAAH (Homo sapiens, UniProt O00519); assay: In vitro competitive activity-based protein profiling, FAAH, human; conditions: read-out: FAAH % inh. 1 μM (human)
For each record, write down the corresponding inhibition at 1 µM.

O=C(O)c1ccn(C(=O)N2CCC3(CCN(Cc4ccc(C(F)(F)F)cc4N4CCC(F)CC4)CC3)C2)n1 [Example 186] ... 0 to 25%
O=C(O)c1ccn(C(=O)N2CCC3(CCN(Cc4cccc(C(F)(F)F)c4)C3)CC2)n1 [Example 192] ... 0 to 25%
O=C(O)c1ccn(C(=O)N2CCC3(CCN(Cc4ccc(C(F)(F)F)c(Cl)c4)C3)CC2)n1 [Example 78] ... 0 to 25%
O=C(O)c1ccn(C(=O)N2CCC3(CCN(Cc4cccc(-c5ccccc5)c4)C3)CC2)n1 [Example 73] ... 0 to 25%
O=C(O)c1ccn(C(=O)N2CCC3(CCN(Cc4ccc(-c5ccccc5)cc4C(F)(F)F)C3)CC2)n1 [Example 170] ... > 75%
O=C(O)c1nn(C(=O)N2CCC3(CCN(Cc4cc(Cl)ccc4C(F)(F)F)C3)CC2)cc1Cl [Example 133] ... > 75%

API: the following record is the query input.
[Q] Quick check: inhibition at 1 µM on FAAH (Homo sapiens, UniProt O00519), item O=C(O)c1ccn(C(=O)N2CCC3(CCN(Cc4cc(F)cc(C(F)(F)F)c4)C3)CC2)n1 [Example 152] ?
[A] 0 to 25%

###

Target: FAAH (Mus musculus, UniProt O08914)
Sequence (O08914 1-579): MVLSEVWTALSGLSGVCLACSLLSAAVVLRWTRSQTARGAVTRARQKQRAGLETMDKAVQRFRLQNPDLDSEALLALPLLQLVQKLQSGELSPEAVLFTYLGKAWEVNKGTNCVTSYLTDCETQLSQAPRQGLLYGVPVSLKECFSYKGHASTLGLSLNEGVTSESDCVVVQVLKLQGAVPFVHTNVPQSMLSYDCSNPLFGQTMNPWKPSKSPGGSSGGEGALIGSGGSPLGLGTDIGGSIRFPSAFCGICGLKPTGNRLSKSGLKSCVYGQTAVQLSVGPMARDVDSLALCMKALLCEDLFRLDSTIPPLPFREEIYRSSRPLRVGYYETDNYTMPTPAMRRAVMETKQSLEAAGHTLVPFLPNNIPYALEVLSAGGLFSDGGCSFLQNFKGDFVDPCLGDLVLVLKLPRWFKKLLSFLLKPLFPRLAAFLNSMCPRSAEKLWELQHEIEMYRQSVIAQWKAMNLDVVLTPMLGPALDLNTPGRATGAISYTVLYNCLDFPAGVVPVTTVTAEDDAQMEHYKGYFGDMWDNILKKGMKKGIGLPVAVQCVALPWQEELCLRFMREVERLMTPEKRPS
Experiment: In vitro competitive activity-based protein profiling, FAAH, mouse
Conditions: read-out: FAAH % inh. 1 μM (mouse)
For each record, write down the corresponding inhibition at 1 µM.

O=C(O)c1nn(C(=O)N2CCN(Cc3ccc(-c4nnn[nH]4)cc3C(F)(F)F)CC2)cc1Cl ... 0 to 25%
CN(Cc1ccc(C(F)(F)F)cc1N1CCCC1)C1(C)CCN(C(=O)n2ccc(C(=O)O)n2)CC1 ... 0 to 25%
O=C(O)c1ccn(C(=O)N2CCC3(CCN(Cc4cccc(Oc5ccc(Cl)cc5)c4)C3)CC2)n1 ... > 75%

API: the following record is the query input.
[Q] Could you tell me which inhibition at 1 µM is on file for NC(=O)c1ccn(C(=O)N2CC3CN(Cc4ccc(Cl)cc4)CC3C2)n1 (stereo not shown) ?
[A] > 75%

###

Biological target: MAGL (Homo sapiens, UniProt Q99685)
Sequence (Q99685 1-303): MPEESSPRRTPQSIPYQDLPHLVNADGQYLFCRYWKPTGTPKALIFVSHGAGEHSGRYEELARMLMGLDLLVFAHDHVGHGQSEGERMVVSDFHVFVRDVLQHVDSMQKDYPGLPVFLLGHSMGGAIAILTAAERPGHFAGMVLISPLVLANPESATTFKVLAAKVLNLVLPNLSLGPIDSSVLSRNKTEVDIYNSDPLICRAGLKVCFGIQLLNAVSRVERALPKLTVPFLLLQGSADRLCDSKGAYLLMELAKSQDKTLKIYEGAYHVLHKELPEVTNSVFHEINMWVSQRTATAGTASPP
Experiment: In vitro competitive activity-based protein profiling, MAGL, human
Details: read-out: MAGL % inh. 1 μM (human)
ENDPOINT: inhibition at 1 µM

Consider the reported inhibition at 1 µM for these compounds:
COC1CCN(c2cc(C(F)(F)F)ccc2CN2CCN(C(=O)n3ccc(C(=O)O)n3)CC2)CC1 ... > 75%
O=C(O)c1nn(C(=O)N2C[C@H]3C[C@H](OCc4cc(F)cc(Cl)c4)C[C@H]3C2)cc1Cl ... > 75%
O=C(O)c1ccn(C(=O)N2CC3CN(Cc4cccc(C(F)(F)F)c4)CC3C2)n1 (centres unmarked) ... 50 to 75%

For every listed record, write down its inhibition at 1 µM.
1. NC(=O)c1ccc(CN2CCN(C(=O)n3ccc(C(=O)O)n3)CC2)cc1C(F)(F)F
2. Cc1cn(C(=O)N2C[C@H]3C[C@H](Oc4cccc(-c5ccccc5)c4)C[C@H]3C2)nc1C(=O)O
3. CN(Cc1ccc(C(F)(F)F)cc1N1CCCC1)C1(C)CCN(C(=O)n2ccc(C(=O)O)n2)CC1
4. O=C(O)c1ccn(C(=O)N2CCN(Cc3cccc(Oc4ccncn4)c3)CC2)n1
5. O=C(O)c1ccn(C(=O)N2CCC(OCc3cccc(N4CCCC4)c3)CC2)n1

[A]
1: 25 to 50%; 2: > 75%; 3: > 75%; 4: 25 to 50%; 5: > 75%

###

Biological target: UniProt:O00519
Sequence (O00519 1-579): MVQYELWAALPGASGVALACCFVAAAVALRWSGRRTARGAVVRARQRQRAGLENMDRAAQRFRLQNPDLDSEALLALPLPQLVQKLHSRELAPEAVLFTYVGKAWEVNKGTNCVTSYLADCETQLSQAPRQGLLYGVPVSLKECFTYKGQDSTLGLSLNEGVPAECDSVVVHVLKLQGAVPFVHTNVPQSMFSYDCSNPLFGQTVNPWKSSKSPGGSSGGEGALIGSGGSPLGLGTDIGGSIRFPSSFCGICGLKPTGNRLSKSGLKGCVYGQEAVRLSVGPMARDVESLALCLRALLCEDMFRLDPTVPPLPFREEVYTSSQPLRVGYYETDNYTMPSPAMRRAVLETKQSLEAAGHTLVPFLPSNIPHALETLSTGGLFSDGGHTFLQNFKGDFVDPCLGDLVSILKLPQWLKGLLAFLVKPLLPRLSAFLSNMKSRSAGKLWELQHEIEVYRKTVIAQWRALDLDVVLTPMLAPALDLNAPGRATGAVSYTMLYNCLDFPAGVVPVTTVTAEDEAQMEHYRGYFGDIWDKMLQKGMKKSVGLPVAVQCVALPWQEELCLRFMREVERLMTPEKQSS
pIC50: −log10 of the molar value.
For each record, write down the corresponding pIC50.

O=C(O)c1nn(C(=O)N2CCC3(CC2)CN(Cc2cc(Cl)ccc2C(F)(F)F)C3)cc1Cl [Example 134] ... 6.00 to 7.00
O=C(O)c1ccn(C(=O)N2C[C@H]3C[C@@H](Oc4cccc(-c5ccccc5)c4)C[C@H]3C2)n1 [Example 164] ... 6.00 to 7.00
O=C(O)c1ccn(C(=O)N2CCC3(CCN(Cc4cc(Cl)cc(C(F)(F)F)c4)C3)CC2)n1 [Example 72] ... 5.00 to 6.00
O=C(O)c1ccn(C(=O)N2CCN(Cc3cccc(Oc4cc(C(F)(F)F)ccn4)c3)CC2)n1 [Example 57] ... 6.00 to 7.00
O=C(O)c1nn(C(=O)N2CCC3(CCCN3Cc3cc4ccc(C(F)(F)F)cc4s3)CC2)cc1C(F)(F)F [Example 149] ... 5.00 to 6.00
Cc1cc(CN2CCC3(CCN(C(=O)n4ccc(C(=O)O)n4)CC3)C2)ccc1C(F)(F)F [Example 155] ... 5.00 to 6.00

API: the following record is the query input.
[Q] Quick check: pIC50 on UniProt:O00519, item CN(Cc1cc(Cl)ccc1C(F)(F)F)C1CCN(C(=O)n2cc(Cl)c(C(=O)O)n2)CC1 [Example 112] ?
[A] 6.00 to 7.00
